Biological target: human adrenergic receptor (ADR) α1B (Homo sapiens, UniProt P35368)
Construct: host or cells: rat chem-1 cells
Sequence (P35368 1-520): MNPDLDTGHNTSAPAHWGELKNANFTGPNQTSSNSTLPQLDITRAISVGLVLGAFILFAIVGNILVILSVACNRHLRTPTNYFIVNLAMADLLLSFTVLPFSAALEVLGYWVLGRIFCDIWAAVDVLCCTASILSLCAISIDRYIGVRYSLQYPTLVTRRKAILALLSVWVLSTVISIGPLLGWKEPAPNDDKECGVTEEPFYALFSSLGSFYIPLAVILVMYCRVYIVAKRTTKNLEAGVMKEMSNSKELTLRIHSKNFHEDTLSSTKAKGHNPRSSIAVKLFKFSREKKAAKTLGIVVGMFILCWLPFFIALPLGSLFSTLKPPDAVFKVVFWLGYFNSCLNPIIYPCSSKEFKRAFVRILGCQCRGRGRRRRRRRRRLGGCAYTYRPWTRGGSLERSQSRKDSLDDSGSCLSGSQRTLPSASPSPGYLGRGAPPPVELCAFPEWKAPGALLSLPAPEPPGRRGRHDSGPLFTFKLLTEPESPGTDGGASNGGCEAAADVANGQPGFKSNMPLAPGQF
Assay: ADRα1B activation, Ca2+ influx (Fluo-8) in overexpressing chem-1 cells
Format: cell-based
Settings: Chem-1, read-out: ADRα1B Emax
Listing of recorded Emax by entry.
Give the quantity in %, number only.

Some compounds with known Emax results, for comparison:
> print(dat)
                                   compound  endpoint.name  assay.value
1      NCC(O)c1ccc(O)cc1 (centres unmarked)           Emax           94
2        CNCC(O)c1ccccc1 (centres unmarked)           Emax           77
3                        CN(C)CCc1ccc(O)cc1           Emax           37
4  CNCC(O)c1ccc(O)cc1 (centres unmarked) [p-Synephrine, p-synephrine]           Emax           91

Here's the next entry for you.
query: Answer with the recorded Emax for the compound listed here: CN(C)CCc1ccccc1
result: 19

These measurements were taken from paper PMC11174489.
